Tested on: MCF-7 (estrogen receptor-α-positive) breast cancer cell line
assay notes: MTT cytotoxicity test, MCF-7
Type: cell-based
stated conditions: 24 h, mean ± SD, read-out: IC50 determined by MTT cytotoxicity test
For each entry below, report its pIC50 value.
The scale used: pIC50 is minus the common logarithm of the concentration in molar units.

Req: # return pIC50 for CC(C)[C@@H](C)[C@@H](O)[C@H](O)[C@@H](C)[C@H]1CC[C@H]2[C@@H]3COC(=O)[C@H]4C[C@H](O)[C@H](O)C[C@]4(C)[C@H]3CC[C@]12C [Brassinosteroid 6, 24-Epibrassinolide] , test system: MCF-7 (estrogen receptor-α-positive) breast cancer cell line
Resp: 4.22

Req: # return pIC50 for CC[C@@H](C(C)C)[C@@H](O)[C@H](O)[C@@H](C)[C@H]1CC[C@H]2[C@@H]3CC(=O)[C@H]4C[C@H](O)[C@H](O)C[C@]4(C)[C@H]3CC[C@]12C [Brassinosteroid 9, 28-Homocastasterone] , test system: MCF-7 (estrogen receptor-α-positive) breast cancer cell line
Resp: 4.40
